# Tested on: H929 human cancer cell lines
# method.summary: Cellular viability / proliferation (Cell TiterGlo, 72 h)
# Type: cell-based
# condition.summary: Homo sapiens, NCI-H929, 72 h, read-out: GI50 on cellular proliferation of H929 human cancer cell lines, H929 cells, 72 h, Cell TiterGlo, 10% FBS
Below, each of the compounds is paired with its reported GI50 value.
A number alone suffices; assume nM.

Below: 2 compounds and their reported GI50.
- compound: "Cc1cc(OCCCc2c3n(c4c(-c5c(C)nn(C)c5C)c(Cl)ccc24)[C@H](C)CN(c2cc(C(=O)O)cc4c2OCO4)C3=O)cc(C)c1Cl [Example 33]"
  reported.metric: "GI50"
  endpoint.unit: "nM"
  val: 650
- compound: "Cc1cc(OCCCc2c3n(c4c(-c5c(C)nn(C)c5C)c(Cl)ccc24)[C@H](C)CN(c2cn(C)c4ccc(-c5cncnc5)cc24)C3=O)cc(C)c1Cl [Example 653]"
  reported.metric: "GI50"
  endpoint.unit: "nM"
  val: 1900

Could you now consider this next compound?
Find the recorded GI50 belonging to Cc1cc(OCCCc2c3n(c4c(-c5c(C)nn(C)c5C)c(Cl)ccc24)[C@H](C)CN(c2cn(Cc4ccccn4)c4cc(C(=O)O)ccc24)C3=O)cc(C)c1Cl [Example 338] and report it. 2000

====

# target.desc: Mcl-1 (Homo sapiens (Human))
# Sequence (Q07820 172-327): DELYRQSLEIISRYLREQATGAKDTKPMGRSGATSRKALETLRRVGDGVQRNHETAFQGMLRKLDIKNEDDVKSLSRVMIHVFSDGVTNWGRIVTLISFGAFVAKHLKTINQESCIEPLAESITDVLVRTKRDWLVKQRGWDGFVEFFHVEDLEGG
# method.summary: TR-FRET binding assay, FITC-Bak peptide and MBP-tagged Mcl-1
# condition.summary: read-out: Ki for Inhibition of Mcl-1 by TR-FRET assay
reported.metric: Ki

Solved entries (count: 3):
- compound: "Cc1cc(N2C[C@@H](C)n3c(c(CCCOc4cc(C)c(Cl)c(C)c4)c4ccc(Cl)c(-c5c(C)nn(C)c5C)c43)C2=O)c2c(c1)cc(C(=O)O)n2Cc1ccccn1 [Example 713]"
  reported.metric: "Ki"
  val: "< 0.2 nM"
- compound: "Cc1cccc(Cn2c(C(=O)O)cc3cc(OCCN(C)C)cc(N4C[C@@H](C)n5c(c(CCCOc6cc(C)c(Cl)c(C)c6)c6ccc(Cl)c(-c7c(C)ncnc7C)c65)C4=O)c32)n1"
  reported.metric: "Ki"
  val: "< 0.2 nM"
- compound: "Cc1cc(OCCCc2c3n(c4c(-c5c(C)nn(C)c5C)c(Cl)ccc24)[C@H](C)CN(c2cn(Cc4ccncc4)c4ccc(C(=O)O)cc24)C3=O)cc(C)c1Cl"
  reported.metric: "Ki"
  val: "0.26 nM"

Which measured Ki value corresponds to COCCn1c(C(=O)O)cc2cc(COC)cc(N3C[C@@H](C)n4c(c(CCCOc5cc(C)c(Cl)c(C)c5)c5ccc(Cl)c(-c6c(C)nn(C)c6C)c54)C3=O)c21 ? < 0.2 nM

What value of Ki has been recorded for this entry: Cc1cc(OCCCc2c3n(c4c(-c5c(C)nn(C)c5C)c(Cl)ccc24)[C@H](C)CN(c2cn(CC4(C)COC4)c4ccc(C(=O)O)cc24)C3=O)cc(C)c1Cl < 0.2 nM

====

Overview of reported pKi across a group of molecules:
# target.desc: Mcl-1 (Homo sapiens (Human))
# method.summary: TR-FRET binding assay, FITC-Bak peptide and MBP-tagged Mcl-1
# condition.summary: read-out: Ki for Inhibition of Mcl-1 by TR-FRET assay
Friendly reminder that pKi comes from taking -log10 of the concentration in mol/L.

- molecule: "Cc1cc(OCCCc2c3n(c4c(-c5c(C)nn(C)c5C)c(Cl)ccc24)[C@H](C)CN(c2cc(N(C)C)cc4cc(C(=O)O)n(C)c24)C3=O)cc(C)c1Cl [Example 683]"
  pKi: 9.68

// pKi lookup, key: Cc1cc(OCCCc2c3n(c4c(-c5c(C)nn(C)c5C)c(Cl)ccc24)[C@H](C)CN(c2cn(CC(=O)N(C)C)c4ccc(-c5ncn(Cc6ccccn6)n5)cc24)C3=O)cc(C)c1Cl [Example 638] 8.77
